tested on: Wolbachia pipientis; assay: Anti-Wolbachia Cell-Based Screen; assay type: functional; set-up: scale not given: in the data most compounds retested in dose-response had high values; settings: 5 µM
Out of some 48,000 compounds screened, about 13,000 (27%) showed an effect of 50% or more. Some of the results follow.
measurement-kind: Percent Effect (%)
Numbers only here, please. The scale is %.

compound-structure-string | unit-tag | observed-measurement
Cc1ccc(C(=O)NS(C)(=O)=O)cc1S(C)(=O)=O | % | -7.611
Cc1ccc(CC(=O)NCCCNS(C)(=O)=O)cc1 | % | 4.317

Query string: Item under review: Cc1ccc(C(=O)NCCCN(C)S(C)(=O)=O)c(=O)[nH]1 . Reported Percent Effect?
Result string: -1.59

Query string: Then what about the compound Cc1ccc(C(=O)NCCN2CCOCC2)cc1N(C)S(C)(=O)=O ?
Result string: -26.4
